- ASSAY NAME: chemical genetic growth profiling, strain panel (AID 1159580);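 note: tested at 20 µM; growth read once vehicle control cultures reached saturation at 30 °C; 1 = growth at the plate median or of vehicle wells; lower values mean less growth of the strain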
- APPLIED CONDITIONS: S. cerevisiae deletion strains, growth OD, locus YIR030C, strain dcg1, hits give low values
In all, about 5,500 compounds went through this assay and about 2,000 (36%) were called active. Inconclusive results (about 18%) are left out. This is one part of the list.
ASSAY READOUT: normalized growth

INSERT INTO results (compound, test_result) VALUES
  ('COc1cccc(OC)c1C(=O)N[C@@H]1C(=O)N2[C@@H]1SC(C)(C)[C@@H]2C(=O)O', 0.992),
  ('CC(=O)OCC1=C(C(=O)O)N2C(=O)[C@@H](NC(=O)CCCC(N)C(=O)O)C2SC1 (stereo not given in full)', 1),
  ('Cc1onc(-c2c(Cl)cccc2Cl)c1C(=O)N[C@@H]1C(=O)N2[C@@H]1SC(C)(C)[C@@H]2C(=O)O', 1.01),
  ('Cc1onc(-c2ccccc2Cl)c1C(=O)N[C@@H]1C(=O)N2[C@@H]1SC(C)(C)[C@@H]2C(=O)O', 1.02),
  ('CCC1(CC)C(=O)C=CNC1=O', 1.01);

---

Below, each entry is listed with its recorded normalized growth.
- ASSAY NAME: chemical genetic growth profiling, strain panel (AID 1159580);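 note: tested at 20 µM; growth read once vehicle control cultures reached saturation at 30 °C; 1 = growth at the plate median or of vehicle wells; lower values mean less growth of the strain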
- APPLIED CONDITIONS: S. cerevisiae deletion strains, growth OD, locus YKL085W, strain MDH1 (second series), hits give low values
The campaign covered roughly 5,500 compounds. About 2,000 (36%) were called active. Not shown: some 18% with an inconclusive outcome. The list shows a part of the results.
ASSAY READOUT: normalized growth

INSERT INTO results (compound, assay_readout, test_result) VALUES
  ('CC[C@@H](CO)NC(=O)[C@@H]1C=C2c3cccc4[nH]cc(c34)C[C@H]2N(C)C1', 'normalized growth', 1.02),
  ('O=C(OC[C@H]1O[C@H](OC(=O)c2cc(O)c(O)c(OC(=O)c3cc(O)c(O)c(O)c3)c2)[C@H](OC(=O)c2cc(O)c(O)c(OC(=O)c3cc(O)c(O)c(O)c3)c2)[C@@H](OC(=O)c2cc(O)c(O)c(OC(=O)c3cc(O)c(O)c(O)c3)c2)[C@@H]1OC(=O)c1cc(O)c(O)c(OC(=O)c2cc(O)c(O)c(O)c2)c1)c1cc(O)c(O)c(OC(=O)c2cc(O)c(O)c(O)c2)c1', 'normalized growth', 0.0765),
  ('NC[C@H]1O[C@H](O[C@H]2C(O[C@@H]3O[C@H](CO)[C@@H](O)[C@H]3O)[C@@H](O)[C@H](N)C[C@@H]2N)[C@H](N)[C@@H](O)[C@@H]1O (stereo not given in full)', 'normalized growth', 1),
  ('CN[C@@H]1[C@@H](O[C@H]2O[C@H](CO)[C@@H](N)[C@H](O)[C@H]2O)O[C@H]2C[C@@H](N)[C@H](O[C@H]3[C@H](O)[C@@H](O)[C@H](N)C[C@@H]3N)O[C@@H]2[C@@H]1O', 'normalized growth', 0.982),
  ('CC(=O)[O][Hg][c]1ccccc1', 'normalized growth', 0.0536);

---

- ASSAY NAME: chemical genetic growth profiling, strain panel (AID 1159580);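 note: tested at 20 µM; growth read once vehicle control cultures reached saturation at 30 °C; 1 = growth at the plate median or of vehicle wells; lower values mean less growth of the strain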
- APPLIED CONDITIONS: S. cerevisiae deletion strains, growth OD, locus YKR091W, strain srl3, hits give low values
Out of some 5,500 compounds screened, about 2,000 (36%) were called active. Not shown: some 18% with an inconclusive outcome. The list shows a part of the results.
ASSAY READOUT: normalized growth

INSERT INTO measurements (molecule, assay_readout, test_result) VALUES
  ('O=c1c(O)c(-c2ccc(O)c(O)c2)oc2cc(O)ccc12', 'normalized growth', 1),
  ('COc1ccc(C2C(=O)c3ccccc3C2=O)cc1', 'normalized growth', 1.01),
  ('NC1C[C@H]1c1ccccc1 (stereo partly specified)', 'normalized growth', 0.979),
  ('O=C1c2ccccc2C(=O)C1c1ccccc1', 'normalized growth', 0.997),
  ('CO[C@H]1C[C@H](O[C@H]2[C@H](C)[C@@H](OC3O[C@H](C)C[C@H](N(C)C)[C@H]3OC(C)=O)[C@@H](C)C[C@]3(CO3)C(=O)[C@H](C)[C@@H](OC(C)=O)[C@@H](C)[C@@H](C)OC(=O)[C@@H]2C)O[C@@H](C)[C@@H]1OC(C)=O (stereo partly specified)', 'normalized growth', 0.997),
  ('O=C(O)c1cc(=O)c2cccc(O)c2[nH]1', 'normalized growth', 1.01);
